FYI, the data here is from patent US6875760B2.

# target_or_system: human glucagon receptor (Homo sapiens)
# Construct: expressed in transfected cells; host or cells: BHK (baby hamster kidney) cells
# Sequence (P47871 26-477): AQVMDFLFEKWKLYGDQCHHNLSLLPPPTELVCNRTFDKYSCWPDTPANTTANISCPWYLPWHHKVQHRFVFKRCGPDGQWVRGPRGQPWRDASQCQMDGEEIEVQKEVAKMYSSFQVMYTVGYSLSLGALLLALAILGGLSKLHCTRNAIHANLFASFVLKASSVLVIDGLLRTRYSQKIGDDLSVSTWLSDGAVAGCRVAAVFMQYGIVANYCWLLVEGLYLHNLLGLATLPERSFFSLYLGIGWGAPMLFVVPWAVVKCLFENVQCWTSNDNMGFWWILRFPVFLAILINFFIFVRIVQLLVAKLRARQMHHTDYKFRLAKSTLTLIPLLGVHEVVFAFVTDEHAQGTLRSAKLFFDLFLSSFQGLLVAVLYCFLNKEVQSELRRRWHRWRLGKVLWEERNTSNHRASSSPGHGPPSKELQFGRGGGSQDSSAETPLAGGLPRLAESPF
# test_name: Glucagon Binding Assay (III)
# assay_conditions: BHK cell membranes, WGA SPA beads, 125I-glucagon; read-out: Glu Bd Assay (III) IC50
pIC50: −log10 of the molar value.
measure: pIC50

1: CC(=O)c1ccc(NC(=O)N(Cc2ccc(C(=O)Nc3nn[nH]n3)cc2)c2ccc(C3CCCCC3)cc2)cc1
2: CC(C)(C)C1CCC(N(Cc2ccc(C(=O)NCCC(=O)O)cc2)C(=O)Nc2ccc([N+](=O)[O-])cc2)CC1 (stereo not shown)
Prompt line: Given 1 and given 2 , which shows the smaller recorded pIC50? Please identify the chosen entry by its label.
Response line: 2
(2: 6.05, 1: 6.72)

1: O=C(O)CCNC(=O)c1ccc(CN(C(=O)Nc2ccc(OC(F)(F)F)cc2)C2CCN(C(=O)C3CC3)CC2)cc1
2: CCCCOC(=O)c1ccc(NC(=O)N(Cc2ccc(C(=O)NCCC(=O)O)cc2)CC(c2ccccc2)c2ccccc2)cc1
Prompt line: In terms of reported pIC50, does 1 or 2 have the smaller number? Give the label under which the chosen entry appears.
Response line: 1
